Known Biological Test Example 5 (%) of a selection of compounds
- experiment: fraction unbound in human plasma (equilibrium dialysis), Biological Test Example 5
- Type: in vitro ADME
- measurement_context: fraction unbound in human plasma

{"columns": ["molecule", "measurement_unit", "Biological Test Example 5 (%)"],
 "data": [
  ["C[C@@H](c1ccc(-c2ccn(C)c(=O)c2)cc1)N1CC[C@](CC(C)(C)O)(c2ccccc2)OC1=O", "%", 8.7],
  ["CC[C@@H](c1ccc(-c2ccc(=O)n(CC)c2)cc1)N1CC[C@](CC(C)(C)O)(c2ccccc2)OC1=O", "%", 9.0],
  ["CC[C@@H](c1ccc(-c2ccn(C)c(=O)c2)cc1)N1CC[C@](CC(C)(C)O)(c2ccccc2)OC1=O", "%", 7.1]
]}

The reported numbers originate from patent US8575157B2.
